// data source = ChEMBL document CHEMBL1122777

- protocolDetails: Ratio of heart to kidneys uptake after 5 min was determined in female Fischer rats after [125I]-labeled compound complexed with bovine serum albumin was injected intravenously
- Format: functional, Heart/Kidney

| chemSmiles | Ratio |
| --- | --- |
| O=C(O)CCC[Te]CCCCCCCCCCC/C=C/I | 3.9 |
| O=C(O)CCCCCCCCC[Te]CCCCC/C=C/I | 1.4 |
| O=C(O)CCCCC[Te]CCCCCCCCC/C=C/I | 3.3 |
| O=C(O)CCCCCCC[Te]CCCCCCC/C=C/I | 3.1 |
| O=C(O)CCCCCCCCCCC[Te]CCC/C=C/I | 1.5 |

---

- protocolDetails: Ratio of heart to liver uptake after 60 min was determined in female Fischer rats after [125I]-labeled compound complexed with bovine serum albumin was injected intravenously
- Type: functional

| chemSmiles | Ratio |
| --- | --- |
| O=C(O)CCC[Te]CCCCCCCCCCC/C=C/I | 0.59 |
| O=C(O)CCCCC[Te]CCCCCCCCC/C=C/I | 0.55 |
| O=C(O)CCCCCCCCC[Te]CCCCC/C=C/I | 0.7 |
| O=C(O)CCCCCCCCCCC[Te]CCC/C=C/I | 0.41 |
| O=C(O)CCCCCCC[Te]CCCCCCC/C=C/I | 1.06 |
